- Experimental System: Activin receptor type-1 (Homo sapiens)
- Sequence (Q04771 whole entry): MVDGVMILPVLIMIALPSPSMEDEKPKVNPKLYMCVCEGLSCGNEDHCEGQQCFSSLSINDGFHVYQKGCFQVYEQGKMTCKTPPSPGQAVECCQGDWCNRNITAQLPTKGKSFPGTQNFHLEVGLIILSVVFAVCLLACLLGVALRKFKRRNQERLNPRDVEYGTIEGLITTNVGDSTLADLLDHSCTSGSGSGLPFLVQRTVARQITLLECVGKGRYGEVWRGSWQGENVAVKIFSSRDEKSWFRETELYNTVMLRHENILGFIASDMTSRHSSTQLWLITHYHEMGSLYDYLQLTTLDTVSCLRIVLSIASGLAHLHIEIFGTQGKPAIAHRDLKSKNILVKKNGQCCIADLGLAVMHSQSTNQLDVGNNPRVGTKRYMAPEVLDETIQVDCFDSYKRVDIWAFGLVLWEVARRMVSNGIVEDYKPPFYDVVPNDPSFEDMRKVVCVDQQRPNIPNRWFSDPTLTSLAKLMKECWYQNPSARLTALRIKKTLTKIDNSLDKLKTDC
- Assay: Inhibition of human ALK2 using casein as substrate in presence of 10 uM [gamma33P] ATP by kinase assay
Endpoint Label: log10 of IC50 (log10 of the value in nM)
Scale: log10; quantity: IC50; unit before log: nM

[in] Note down log10 of IC50 recorded for CCCS(=O)(=O)Nc1cc(OC)cc(-c2cc(-c3ccc(N4CCNCC4)cc3)cnc2C)c1
[out] 2.03

[in] Note down log10 of IC50 recorded for COc1cc(NS(=O)(=O)C(C)C)cc(-c2cc(-c3ccc(N4CCNCC4)cc3)cnc2C)c1
[out] 2.38

[in] Note down log10 of IC50 recorded for CCCS(=O)(=O)Nc1cc(-c2cc(-c3ccc(N4CCNCC4)cc3)cnc2N)cc(OC)c1OC
[out] 1.76

[in] Note down log10 of IC50 recorded for COc1cc(-c2cc(-c3ccc(N4CCNCC4)cc3)cnc2N)cc(F)c1OC
[out] 1.46

[in] Note down log10 of IC50 recorded for COc1cc(NS(C)(=O)=O)cc(-c2cc(-c3ccc(N4CCNCC4)cc3)cnc2N)c1
[out] 0.70

[in] Note down log10 of IC50 recorded for CCOc1cc(NS(=O)(=O)C(C)C)cc(-c2cc(-c3ccc(N4CCNCC4)cc3)cnc2N)c1
[out] 2.48

[in] Note down log10 of IC50 recorded for CCCS(=O)(=O)Nc1cc(-c2cc(-c3ccc(N4CCNCC4)cc3)cnc2N)cc(Cl)c1OC
[out] 2.31

[in] Note down log10 of IC50 recorded for COc1cc(NS(=O)(=O)C(C)C)cc(-c2cc(-c3ccc(N4CCNCC4)cc3)cnc2N)c1
[out] 1.04

[in] Note down log10 of IC50 recorded for COc1cc(NS(=O)(=O)c2ccccc2)cc(-c2cc(-c3ccc(N4CCNCC4)cc3)cnc2N)c1
[out] 0.70

[in] Note down log10 of IC50 recorded for COc1cc(NS(C)(=O)=O)cc(-c2cc(-c3ccc(N4CCNCC4)cc3)cnc2C)c1
[out] 1.49

[in] Note down log10 of IC50 recorded for CCCS(=O)(=O)Nc1cc(-c2cc(-c3cccc(N4CCNCC4)c3)cnc2N)cc(F)c1OC
[out] 2.72

[in] Note down log10 of IC50 recorded for CCS(=O)(=O)Nc1cc(OC)cc(-c2cc(-c3ccc(N4CCNCC4)cc3)cnc2C)c1
[out] 1.93

[in] Note down log10 of IC50 recorded for CCCS(=O)(=O)NCc1cc(-c2cc(-c3ccc(N4CCNCC4)cc3)cnc2N)ccc1OC
[out] 2.16

[in] Note down log10 of IC50 recorded for CCCS(=O)(=O)Nc1cc(-c2cc(-c3ccc(N4CCNCC4)cc3)cnc2N)ccc1O
[out] 2.59

[in] Note down log10 of IC50 recorded for CCCS(=O)(=O)Nc1cc(-c2cc(-c3ccc(N4CCNCC4)cc3)cnc2N)ccc1C
[out] 3.33

[in] Note down log10 of IC50 recorded for CCCS(=O)(=O)Nc1cc(-c2cc(-c3ccc(N4CCNCC4)cc3)cnc2N)cc(OC)c1C
[out] 2.55

[in] Note down log10 of IC50 recorded for CCCS(=O)(=O)Nc1cc(-c2cc(-c3ccc(N4CCNCC4)cc3)cnc2N)cc(C)c1OC
[out] 2.60

[in] Note down log10 of IC50 recorded for CCCS(=O)(=O)Nc1cc(-c2cc(-c3ccc(N4CCNCC4)cc3)cnc2N)cc(F)c1OC
[out] 2.54

[in] Note down log10 of IC50 recorded for CCCS(=O)(=O)Nc1cc(-c2cc(-c3ccc(N4CCNCC4)cc3)cnc2N)ccc1OC
[out] 3.55

[in] Note down log10 of IC50 recorded for CCCS(=O)(=O)Nc1cc(OC)cc(-c2cc(-c3ccc(N4CCNCC4)cc3)cnc2N)c1
[out] 0.95
